assay: HDX of amide protons by NMR in CDCl3:CD3OD (8:2); conditions: 20% CD3OD in CDCl3
Starred links: 1 amine or outer side, 2 acyl side, 3 side chain; linkers in the order of their positions; H or OH if unused. Non-standard residues stand in square brackets, D forms with d. Residues, ends and D or L forms follow the SMILES beside them. X1 = CC(C)C[C@H](NC(=S)[C@H](Cc1ccc(O)cc1)N[*:1])C(=O)[*:2]
endpoint_name: Half-life of Tyr5 amide proton (HDX) (h)

A: CC(C)C[C@@H]1NC(=O)[C@H](Cc2ccc(O)cc2)NC(=O)[C@H]2CCCN2C(=O)[C@H](CC(C)C)NC(=O)[C@H](CC(C)C)NC(=O)[C@@H](CC(C)C)NC1=O [compound 10, cyclo(-D-Leu^1-Leu-Leu-D-Pro-Tyr-Leu^6-)] (cyclo(LL[dP]YL[dL]))
B: CC(C)C[C@@H]1NC(=O)[C@@H](CC(C)C)NC(=O)[C@H](CC(C)C)NC(=S)[C@H](Cc2ccc(O)cc2)NC(=O)[C@H]2CCCN2C(=O)[C@H](CC(C)C)NC1=O [10e] (cyclo(LL[dP][X1][dL]))
Between A and B , which one shows the smaller Half-life of Tyr5 amide proton (HDX) number? Write down the label attached to your selection. A
(A: 1.75 h, B: 3.13 h)
